Origin of values: patent US10246442B2

Hi there, I'd appreciate the recorded activation at 100 µM for every entry that follows.
Tested on: Erythropoietin secretion, Hep-3B cells
method notes: Cellular assay: EPO secretion in Hep-3B cells
Assay type: cell-based
run conditions: Homo sapiens, Hep3B, 100 μM compound, 24 hours, percent of EPO secretion relative to assay control compound 7-[(4-Chloro-phenyl)-(5-methyl-isoxazol-3-ylamino)-methyl]-quinolin-8-ol, read-out: Cellular % EPO Stimulation
Description: Hep-3B cells (ATCC, Manassas, Va.) were plated in 96-well plates at 20,000 cells per well in 100 μl of DMEM containing 10% fetal bovine serum, 1% non-essential amino acids, 50 IU/mL of penicillin and 50 μg/mL of streptomycin (all cell culture reagents from Invitrogen, Carlsbad, Calif.). Twenty-four hours after plating, compounds were added and incubated for an additional 24 hours. […] Erythropoietin in the supernatant was detected according to the manufacturer's instructions as follows. […]
Include the unit after the number when you answer.

In one line, give reported activation at 100 µM of the entry `CCN(C)c1nc(-n2cc(C(=O)O)cn2)nc2ccc(C(C)C)cc12` .
36%

In one line, give reported activation at 100 µM of the entry `O=C(O)c1cnn(-c2nc(N3CCCC3)c3ccc(Oc4ccccc4)cc3n2)c1` .
38%

In one line, give reported activation at 100 µM of the entry `CN(C)c1nc(-n2cc(C(=O)O)cn2)nc2ccc(-c3ccccc3)cc12` .
43%

In one line, give reported activation at 100 µM of the entry `CN1CCCN(c2nc(-n3cc(C(=O)O)cn3)nc3ccc(Oc4ccc(Cl)cc4)cc23)CC1` .
17%

In one line, give reported activation at 100 µM of the entry `Cc1cccc(C)c1Oc1cc2c(N3CCOCC3)nc(-n3cc(C(=O)O)cn3)nc2cc1F` .
54%

In one line, give reported activation at 100 µM of the entry `CCN(C)c1nc(-n2cc(C(=O)O)cn2)nc2ccc(-c3ccccc3)cc12` .
56%

In one line, give reported activation at 100 µM of the entry `Cc1cccc(C)c1Oc1cc2c(N3CCCCC3)nc(-n3cc(C(=O)O)cn3)nc2cc1F` .
17%

In one line, give reported activation at 100 µM of the entry `O=C(O)c1cnn(-c2nc(N3CCCC3)c3cc(OC4CCCCC4)c(F)cc3n2)c1` .
31%

In one line, give reported activation at 100 µM of the entry `O=C(O)c1cnn(-c2nc(N3CCOCC3)c3cc(OC4CCCCC4)c(Cl)cc3n2)c1` .
33%

In one line, give reported activation at 100 µM of the entry `O=C(O)c1cnn(-c2nc(N3CCCCC3)c3cc(-c4ccccc4)ccc3n2)c1` .
8%

In one line, give reported activation at 100 µM of the entry `O=C(O)c1cnn(-c2nc(NC3CC3)c3cc(Oc4ccc(Cl)cc4)ccc3n2)c1` .
32%

In one line, give reported activation at 100 µM of the entry COCC(C)Nc1nc(-n2cc(C(=O)O)cn2)nc2cc(F)c(Oc3c(C)cccc3C)cc12 (racemic) .
86%

In one line, give reported activation at 100 µM of the entry `CC(C)c1ccc2nc(-n3cc(C(=O)O)cn3)nc(N3CCCC3)c2c1` .
28%

In one line, give reported activation at 100 µM of the entry `CC(C)c1cc2c(N3CCOCC3)nc(-n3cc(C(=O)O)cn3)nc2cc1Cl` .
28%

In one line, give reported activation at 100 µM of the entry `O=C(O)c1cnn(-c2nc(N3CCCCC3)c3cc(Oc4ccc(Cl)cc4)ccc3n2)c1` .
39%

In one line, give reported activation at 100 µM of the entry `CC(C)c1cc2c(N3CCCC3)nc(-n3cc(C(=O)O)cn3)nc2cc1Cl` .
26%

In one line, give reported activation at 100 µM of the entry `O=C(O)c1cnn(-c2nc(N3CCOCC3)c3cc(OC4CCCCC4)c(F)cc3n2)c1` .
18%

In one line, give reported activation at 100 µM of the entry `O=C(O)c1cnn(-c2nc(N3CCSCC3)c3cc(-c4ccccc4)ccc3n2)c1` .
25%

In one line, give reported activation at 100 µM of the entry `Nc1nc(-n2cc(C(=O)O)cn2)nc2ccc(C3CCCCC3)cc12` .
36%

---

assay target: PHD2181-417 (Homo sapiens (Human), UniProt Q9GZT9)
Sequence (Q9GZT9 181-417): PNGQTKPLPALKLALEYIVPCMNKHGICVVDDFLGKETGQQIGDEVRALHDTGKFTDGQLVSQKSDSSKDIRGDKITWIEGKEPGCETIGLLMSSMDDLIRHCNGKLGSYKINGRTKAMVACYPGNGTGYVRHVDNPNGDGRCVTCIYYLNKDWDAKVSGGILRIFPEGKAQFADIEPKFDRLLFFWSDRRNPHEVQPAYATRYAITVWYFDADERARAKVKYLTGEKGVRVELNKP
method notes: PHD enzymatic assay ([14C]-succinic acid production)
Assay type: biochemical
run conditions: purified PHD2181-417, HIF-1α peptide substrate, 30 min pre-incubation; average of results
measurement type: Enzyme pIC50
// keep it numeric: no unit symbol after the value

Please report the measured Enzyme pIC50 for CCN(CC)c1nc(-n2cc(C(=O)O)cn2)nc2cc(Br)ccc12 [Example 96] tested on PHD2181-417 (Homo sapiens (Human), UniProt Q9GZT9).
6.9

Please report the measured Enzyme pIC50 for Cc1cccc(C)c1Oc1cc2c(Nc3ccccc3)nc(-n3cc(C(=O)O)cn3)nc2cc1F [Example 6] tested on PHD2181-417 (Homo sapiens (Human), UniProt Q9GZT9).
7.4

Please report the measured Enzyme pIC50 for O=C(O)c1cnn(-c2nc(N3CCCC3)c3cc(Cc4ccccc4)ccc3n2)c1 [Example 181] tested on PHD2181-417 (Homo sapiens (Human), UniProt Q9GZT9).
7.1

Please report the measured Enzyme pIC50 for O=C(O)c1cnn(-c2nc(NC3CC3)c3cc(Oc4ccc(Cl)cc4)ccc3n2)c1 [Example 62] tested on PHD2181-417 (Homo sapiens (Human), UniProt Q9GZT9).
7.0

---

assay target: PHD2181-417 (Homo sapiens (Human), UniProt Q9GZT9)
method notes: PHD enzymatic assay ([14C]-succinic acid production)
Assay type: biochemical
run conditions: purified PHD2181-417, HIF-1α peptide substrate, 30 min pre-incubation; average of results
measurement type: Enzyme pIC50
// keep it numeric: no unit symbol after the value

In one line, give reported Enzyme pIC50 of the entry O=C(O)c1cnn(-c2nc(N3CCSCC3)c3cc(C4CCCCC4)ccc3n2)c1 [Example 34] .
6.9

In one line, give reported Enzyme pIC50 of the entry CCN(CC)c1nc(-n2cc(C(=O)O)cn2)nc2ccc(N3CCCCC3)cc12 [Example 88] .
7.0

In one line, give reported Enzyme pIC50 of the entry CCN(CC)CCNc1nc(-n2cc(C(=O)O)cn2)nc2cc(F)c(Oc3c(C)cccc3C)cc12 [Example 10] .
5.9

In one line, give reported Enzyme pIC50 of the entry O=C(O)c1cnn(-c2nc(Nc3ccccc3)c3cc(C4CCCCC4)ccc3n2)c1 [Example 28] .
7.3

---

assay target: PHD2181-417 (Homo sapiens (Human), UniProt Q9GZT9)
method notes: PHD enzymatic assay ([14C]-succinic acid production)
Assay type: biochemical
run conditions: purified PHD2181-417, HIF-1α peptide substrate, 30 min pre-incubation; average of results
Hi there, I'd appreciate the recorded Enzyme pIC50 for every entry that follows.
// keep it numeric: no unit symbol after the value

Please report the measured Enzyme pIC50 for `CC(C)c1cc2c(N3CCCC3)nc(-n3cc(C(=O)O)cn3)nc2cc1Cl` tested on PHD2181-417 (Homo sapiens (Human), UniProt Q9GZT9).
7.3

Please report the measured Enzyme pIC50 for `O=C(O)c1cnn(-c2nc(N3CCOCC3)c3cc(C4CCCCC4)ccc3n2)c1` tested on PHD2181-417 (Homo sapiens (Human), UniProt Q9GZT9).
6.8

Please report the measured Enzyme pIC50 for `Cc1cccc(C)c1Oc1cc2c(N3CCCN(C)CC3)nc(-n3cc(C(=O)O)cn3)nc2cc1F` tested on PHD2181-417 (Homo sapiens (Human), UniProt Q9GZT9).
6.7

Please report the measured Enzyme pIC50 for `O=C(O)c1cnn(-c2nc(N3CCSCC3)c3cc(-c4ccccc4)ccc3n2)c1` tested on PHD2181-417 (Homo sapiens (Human), UniProt Q9GZT9).
6.8

Please report the measured Enzyme pIC50 for `CCN(CC)c1nc(-n2cc(C(=O)O)cn2)nc2ccc(C(C)C)cc12` tested on PHD2181-417 (Homo sapiens (Human), UniProt Q9GZT9).
7.0

Please report the measured Enzyme pIC50 for `Cc1cccc(C)c1Oc1cc2c(N3CCCCC3)nc(-n3cc(C(=O)O)cn3)nc2cc1F` tested on PHD2181-417 (Homo sapiens (Human), UniProt Q9GZT9).
6.9

Please report the measured Enzyme pIC50 for `CCN(CC)c1nc(-n2cc(C(=O)O)cn2)nc2cc(Cl)c(C(C)C)cc12` tested on PHD2181-417 (Homo sapiens (Human), UniProt Q9GZT9).
7.2

Please report the measured Enzyme pIC50 for `O=C(O)c1cnn(-c2nc(NC3CC3)c3cc(Oc4ccccc4)ccc3n2)c1` tested on PHD2181-417 (Homo sapiens (Human), UniProt Q9GZT9).
6.8

Please report the measured Enzyme pIC50 for `N#CC1CCN(c2nc(-n3cc(C(=O)O)cn3)nc3ccc(C4CCCCC4)cc23)CC1` tested on PHD2181-417 (Homo sapiens (Human), UniProt Q9GZT9).
6.9

Please report the measured Enzyme pIC50 for `CNc1nc(-n2cc(C(=O)O)cn2)nc2cc(F)c(Oc3c(C)cccc3C)cc12` tested on PHD2181-417 (Homo sapiens (Human), UniProt Q9GZT9).
7.2

Please report the measured Enzyme pIC50 for `CC(C)(C)Nc1nc(-n2cc(C(=O)O)cn2)nc2ccc(-c3ccccc3)cc12` tested on PHD2181-417 (Homo sapiens (Human), UniProt Q9GZT9).
6.5

Please report the measured Enzyme pIC50 for `O=C(O)c1cnn(-c2nc(N3CCCCC3)c3cc(-c4ccccc4)ccc3n2)c1` tested on PHD2181-417 (Homo sapiens (Human), UniProt Q9GZT9).
7.2

Please report the measured Enzyme pIC50 for `O=C(O)c1cnn(-c2nc(N3CCOCC3)c3ccc(Oc4ccccc4)cc3n2)c1` tested on PHD2181-417 (Homo sapiens (Human), UniProt Q9GZT9).
6.2

Please report the measured Enzyme pIC50 for `N#CNc1nc(-n2cc(C(=O)O)cn2)nc2ccc(C3CCCCC3)cc12` tested on PHD2181-417 (Homo sapiens (Human), UniProt Q9GZT9).
7.2

Please report the measured Enzyme pIC50 for `O=C(O)c1cnn(-c2nc(NCC3CC3)c3ccc(Oc4ccccc4)cc3n2)c1` tested on PHD2181-417 (Homo sapiens (Human), UniProt Q9GZT9).
6.7

Please report the measured Enzyme pIC50 for `O=C(O)c1cnn(-c2nc(N3CCSCC3)c3ccc(Oc4ccccc4)cc3n2)c1` tested on PHD2181-417 (Homo sapiens (Human), UniProt Q9GZT9).
6.3

Please report the measured Enzyme pIC50 for `CCN(C)c1nc(-n2cc(C(=O)O)cn2)nc2cc(Oc3ccccc3)ccc12` tested on PHD2181-417 (Homo sapiens (Human), UniProt Q9GZT9).
7.2
